Reported pIC50 by item:
# System: A498
# Test Description: Growth inhibition of human A498 cells after 48 hrs by sulforhodamine B assay
# Type: functional, cell-based
# Assay Context: A498, 48 h
pIC50: −log10 of the molar value.
Measured Parameter: pIC50

1) COc1cc(-c2nn(-c3cccc(NC(=O)Nc4cccc(C(F)(F)F)c4)c3)cc2-c2ccncc2)ccc1Cl	6.02
2) COc1cc(-c2nn(-c3cccc(NC(=O)c4cccc(C(F)(F)F)c4)c3)cc2-c2ccncc2)ccc1Cl	6.16
3) COc1cc(-c2nn(-c3cccc(NC(=O)c4ccc(Cl)c(C(F)(F)F)c4)c3)cc2-c2ccncc2)ccc1Cl	5.57
